# Test system: DU4475 cells
# ASSAY OVERVIEW: Cell-based assay: anti-proliferative activity, Cell Counting Kit-8, 72 hours (DU4475)
# CONDITION LABEL: hydrochloride
Where a name gives a salt, the structure may show the parent alone.
QUANTITY NAME: IC50 (µM)
Give the value in µM but do not write µM after it.

Sample N[C@H]1CCCN(c2ccc(Nc3c(C(=O)C4CC4)cnc4ccc(-c5cc(Cl)c(O)c(Cl)c5)cc34)cn2)C1 [Example 647, hydrochloride] — what was its IC50?
0.015

Sample CC(=O)c1cnc2ccc(-c3cc(Cl)c(O)c(Cl)c3)cc2c1Nc1ccc(CN2CCN(C)CC2)cc1 [Example 655, hydrochloride] — what was its IC50?
0.097

Sample CN(C)C1CCN(Cc2ccc(Nc3c(C(=O)C4CC4)cnc4ccc(-c5cc(Cl)c(O)c(Cl)c5)cc34)cc2)C1 (stereo not shown) [Example 695, hydrochloride] — what was its IC50?
0.1

Sample CC(=O)c1cnc2ccc(-c3cc(Cl)c(O)c(Cl)c3)cc2c1N[C@H]1CC[C@H](CCN(C)C)CC1 [Example 740, hydrochloride] — what was its IC50?
0.087
